- System: MDA-MB-231
- assay_details: MTT anti-proliferative assay, MDA-MB-231
- Type: cell-based
- protocol_conditions: Homo sapiens, 48 h treatment, MTT, mean ± SD of at least three experiments, read-out: IC50 (M)/ 48 h MDA-MB-231
endpoint: IC50 (M)
One number for each entry, in M.

These recorded examples may help you get a feel for the data.
molecule: COCC(COC)(C(=O)/C=C/c1ccc(OC(=O)C(C)(CO)CO)c(OC)c1)C(=O)/C=C/c1ccc(OC(=O)C(C)(CO)CO)c(OC)c1
IC50 (M): 8.49e-05
--
molecule: COc1ccc(/C=C/C(=O)C(COC(=O)C(C)(CO)CO)(COC(=O)C(C)(CO)CO)C(=O)/C=C/c2ccc(OC)c(OC)c2)cc1OC
IC50 (M): 5.74e-05

Answer with the recorded IC50 for the molecule listed here: CCCC(CCC)(C(=O)/C=C/c1ccc(O)c(OC)c1)C(=O)/C=C/c1ccc(O)c(OC)c1
1.82e-05

----------
Exercise: for every item that follows, state its recorded pIC50.
- System: MDA-MB-231
- assay_details: MTT anti-proliferative assay, MDA-MB-231
- Type: cell-based
- protocol_conditions: Homo sapiens, anti-proliferative screening, read-out: IC50 MDA-MB-231
pIC50: −log10 of the molar value.

compound: COc1cc(CCC(O)C(C)(C)C(O)CCc2ccc(O)c(OC)c2)ccc1O (stereo not shown)
experimental_target: MDA-MB-231
pIC50: ≤ 4.00

Provide the reported pIC50 of each entry below, same order.
1. COc1cc(CCC(=O)C(C)(C)C(O)CCc2ccc(O)c(OC)c2)ccc1O (stereo not shown)
2. COc1cc(/C=C/C(=O)C(C)(C)C(=O)CCc2ccc(O)c(OC)c2)ccc1O
3. COc1cc(CCC(=O)C(C)(C)C(=O)CCc2ccc(O)c(OC)c2)ccc1O

1. ≤ 4.00
2. 4.44
3. ≤ 4.00

----------
- Tested on: MDA-MB-231
- assay_details: MTT anti-proliferative assay, MDA-MB-231
- Type: cell-based
- protocol_conditions: Homo sapiens, 48 h treatment, MTT, mean ± SD of at least three experiments, read-out: IC50 (M)/ 48 h MDA-MB-231
endpoint: IC50 (M)
Answers are plain numbers, in M.

These recorded examples may help you get a feel for the data.
molecule: C=CCC(CC=C)(C(=O)/C=C/c1ccc(OC(=O)C(C)(CO)CO)c(OC)c1)C(=O)/C=C/c1ccc(OC(=O)C(C)(CO)CO)c(OC)c1 [Compound 6]
uom: M
IC50: 3.13e-06
//
molecule: C#CCC(CC#C)(C(=O)/C=C/c1ccc(OC(=O)C(C)(CO)CO)c(OC)c1)C(=O)/C=C/c1ccc(OC(=O)C(C)(CO)CO)c(OC)c1 [Compound 5]
uom: M
IC50: 5.87e-06
//
molecule: COc1cc(/C=C/C(=O)C(Cc2ccccc2)(Cc2ccccc2)C(=O)/C=C/c2ccc(O)c(OC)c2)ccc1O [Compound 4m]
uom: M
IC50: 3.65e-05
//
molecule: COc1cc(/C=C/C(=O)/C=C(O)/C=C/c2ccc(OC(=O)C(C)(CO)CO)c(OC)c2)ccc1OC(=O)C(C)(CO)CO [Compound 1]
uom: M
IC50: 3.06e-06
//
molecule: COc1cc(/C=C/C(=O)C(COC(C)=O)(COC(C)=O)C(=O)/C=C/c2ccc(OC(=O)C(C)(CO)CO)c(OC)c2)ccc1OC(=O)C(C)(CO)CO [Compound 10]
uom: M
IC50: 6.55e-06
//
molecule: CCC(CC)(C(=O)/C=C/c1ccc(O)c(OC)c1)C(=O)/C=C/c1ccc(O)c(OC)c1 [Compound 3m]
uom: M
IC50: 9.12e-06
//
molecule: COc1ccc(/C=C/C(=O)C(CO)(CO)C(=O)/C=C/c2ccc(OC)c(OC)c2)cc1OC [Compound 12]
uom: M
IC50: 5.35e-05
//
molecule: COc1cc(/C=C/C(=O)CC(=O)/C=C/c2ccc(O)c(OC)c2)ccc1O [Curcumin]
uom: M
IC50: 2.21e-05

Provide the reported IC50 of each entry below, same order.
1. C=CCC(CC=C)(C(=O)/C=C/c1ccc(O)c(OC)c1)C(=O)/C=C/c1ccc(O)c(OC)c1 [Compound 6m]
2. COc1cc(/C=C/C(=O)C(Cc2ccccc2)(Cc2ccccc2)C(=O)/C=C/c2ccc(OC(=O)C(C)(CO)CO)c(OC)c2)ccc1OC(=O)C(C)(CO)CO [Compound 4]

1. 6.88e-06
2. 2.45e-06

----------
Exercise: for every item that follows, state its recorded melting point.

molecule: COCC(COC)(C(=O)/C=C/c1ccc(OC(=O)C(C)(CO)CO)c(OC)c1)C(=O)/C=C/c1ccc(OC(=O)C(C)(CO)CO)c(OC)c1
melting point: 187 to 188 °C

Provide the reported melting point of each entry below, same order.
1. CCC(CC)(C(=O)/C=C/c1ccc(O)c(OC)c1)C(=O)/C=C/c1ccc(O)c(OC)c1
2. COc1cc(/C=C/C(=O)C(COC(C)=O)(COC(C)=O)C(=O)/C=C/c2ccc(OC(=O)C(C)(CO)CO)c(OC)c2)ccc1OC(=O)C(C)(CO)CO
3. CCCCC(CCCC)(C(=O)/C=C/c1ccc(O)c(OC)c1)C(=O)/C=C/c1ccc(O)c(OC)c1
4. COc1cc(/C=C/C(=O)C(C)(C)C(=O)/C=C/c2ccc(O)c(OC)c2)ccc1O
5. CCCC(CCC)(C(=O)/C=C/c1ccc(O)c(OC)c1)C(=O)/C=C/c1ccc(O)c(OC)c1
6. COc1ccc(/C=C/C(=O)C(CO)(CO)C(=O)/C=C/c2ccc(OC)c(OC)c2)cc1OC

1: 114 to 115 °C; 2: 194 to 196 °C; 3: 144 to 146 °C; 4: 104 to 106 °C; 5: 137 to 139 °C; 6: 174 to 176 °C

Provide the reported melting point of each entry below, same order.
1. COc1cc(/C=C/C(=O)C(Cc2ccccc2)(Cc2ccccc2)C(=O)/C=C/c2ccc(O)c(OC)c2)ccc1O
2. COc1ccc(/C=C/C(=O)C(COC(=O)C(C)(CO)CO)(COC(=O)C(C)(CO)CO)C(=O)/C=C/c2ccc(OC)c(OC)c2)cc1OC
3. C=CCC(CC=C)(C(=O)/C=C/c1ccc(OC(=O)C(C)(CO)CO)c(OC)c1)C(=O)/C=C/c1ccc(OC(=O)C(C)(CO)CO)c(OC)c1

134 to 135 °C
> 300 °C
195 to 197 °C

----------
- Test system: MDA-MB-231
- assay_details: MTT anti-proliferative assay, MDA-MB-231
- Assay type: cell-based
- protocol_conditions: Homo sapiens, 48 h treatment, MTT, mean ± SD of at least three experiments, read-out: IC50 (M)/ 48 h MDA-MB-231
- Description: These compounds, along with all newly synthesized compounds, were screened for anti-proliferative activity against the same TNBC and colon cancer cell lines. Cell viability was evaluated by measuring the reduction in MTT to yield blue formazan. […] Medium was removed, blue formazan was dissolved in DMSO, and the absorbance was read at 570 nm by Multiskan Go spectrophotometer (Thermo Scientific, Madison, WI, USA).
endpoint: IC50 (M)
Numbers only, in M.

Provide the reported IC50 of each entry below, same order.
1. C#CCC(CC#C)(C(=O)/C=C/c1ccc(O)c(OC)c1)C(=O)/C=C/c1ccc(O)c(OC)c1
2. COc1cc(/C=C/C(=O)C(C)(C)C(=O)/C=C/c2ccc(O)c(OC)c2)ccc1O
3. CCC(CC)(C(=O)/C=C/c1ccc(OC(=O)C(C)(CO)CO)c(OC)c1)C(=O)/C=C/c1ccc(OC(=O)C(C)(CO)CO)c(OC)c1
4. COc1cc(/C=C/C(=O)C(C)(C)C(=O)/C=C/c2ccc(OC(=O)C(C)(CO)CO)c(OC)c2)ccc1OC(=O)C(C)(CO)CO

["3.1e-06", "4.17e-06", "3.02e-06", "2.25e-06"]
